- Test system: WI-38 normal human fibroblast cells
- Method notes: Cytotoxicity towards normal fibroblasts, safety index
- Type: cell-based
- Test conditions: WI-38 versus cancer cell lines
Safety index: recorded values

Consider the molecule O=C(/C=C/c1cccnc1)c1cccc(NCc2ccc(CO)cc2)c1 . State its measured Safety index.
>1

Find the measured Safety index of COc1ccc(CNc2cccc(C(=O)/C=C/c3cccnc3)c2)cc1OC and report it.
>1

Using known records, supply Safety index for CC(=O)Nc1ccc(/C=C/C(=O)c2cccc(NCc3csc4ccccc34)c2)cc1
>1

Give Safety index for the following molecule: CC(=O)Nc1ccc(CNc2cccc(C(=O)/C=C/c3cccnc3)c2)cc1
>1

Supply reported Safety index belonging to this molecule: CC(=O)Nc1ccc(/C=C/C(=O)c2cccc(NCc3ccc(NC(C)=O)cc3)c2)cc1
>1

Specify reported Safety index for the molecule shown: CC(=O)Nc1ccc(/C=C/C(=O)c2cccc(NCc3ccc(C)cc3)c2)cc1
>1

Look up and report measured Safety index for this entry: O=C(/C=C/c1cccnc1)c1cccc(NCc2csc3ccccc23)c1
>1

Provide one value: measured Safety index of Cc1ccc(CNc2cccc(C(=O)/C=C/c3cccnc3)c2)cc1
>1

Tell me Safety index reported for COc1ccc(CNc2cccc(C(=O)/C=C/c3ccc(NC(C)=O)cc3)c2)cc1OC
>1

Specify reported Safety index for the molecule shown: CC(=O)Nc1ccc(/C=C/C(=O)c2cccc(NCc3ccc(CO)cc3)c2)cc1
>1

###

Listed below: Full panel Mean GI % values for each entry.
- System: NCI 60-cell line panel (full panel)
- Method notes: NCI-60 SRB growth inhibition, full panel mean / MG-MID
- Format: cell-based, human
- Test conditions: mean over NCI-60 panel; single dose 10 µM
Record the value in %, omitting the unit from your answer.

[[record]]
compound = "CC(=O)Nc1ccc(/C=C/C(=O)c2cccc(NCc3csc4ccccc34)c2)cc1 [Compound 5i]"
observed_measurement = 82.81


// switching to the query compound
Supply Full panel Mean GI % value. Item: CC(=O)Nc1ccc(/C=C/C(=O)c2cccc(NCc3ccc(CO)cc3)c2)cc1 [Compound 5j]
120.44

###

- Tested on: A549/ATCC
- Method notes: NCI-60 SRB growth inhibition, one-dose and five-dose
- Format: cell-based
- Test conditions: Homo sapiens, A549
# reported GI50; entries follow
Return type: number; implicit unit µM.

Example cases with answers are listed next.
[[record]]
record_smiles = "Cc1ccc(CNc2cccc(C(=O)/C=C/c3cccnc3)c2)cc1"
scale_unit = "µM"
observed_measurement = 17.3

[[record]]
record_smiles = "O=C(/C=C/c1cccnc1)c1cccc(NCc2csc3ccccc23)c1"
scale_unit = "µM"
observed_measurement = 11.5


Find the measured GI50 of O=C(/C=C/c1cccnc1)c1cccc(NCc2ccc(CO)cc2)c1 and report it.
16.9

###

Examples of molecules with documented inhibition at 10 µM follow.
- System: K-562
- Method notes: NCI-60 SRB growth inhibition, one-dose and five-dose
- Format: cell-based
- Test conditions: Homo sapiens, K562, read-out: percent growth inhibition
A number alone suffices; assume %.

Check out these entries, answers already filled in.
[[record]]
molecule = "O=C(/C=C/c1cccnc1)c1cccc(NCc2ccc(CO)cc2)c1 [Compound 5e]"
tested_system = "K-562"
observation_type = "inhibition at 10 µM"
observed_measurement = 99.1

[[record]]
molecule = "CC(=O)Nc1ccc(/C=C/C(=O)c2cccc(NCc3ccc4oc(=O)ccc4c3)c2)cc1 [Compound 5k]"
tested_system = "K-562"
observation_type = "inhibition at 10 µM"
observed_measurement = 93.3

[[record]]
molecule = "Cc1ccc(CNc2cccc(C(=O)/C=C/c3cccnc3)c2)cc1 [Compound 5a]"
tested_system = "K-562"
observation_type = "inhibition at 10 µM"
observed_measurement = 93.6

[[record]]
molecule = "CC(=O)Nc1ccc(CNc2cccc(C(=O)/C=C/c3c[nH]cn3)c2)cc1 [Compound 5l]"
tested_system = "K-562"
observation_type = "inhibition at 10 µM"
observed_measurement = 80.8


Now turn to the next molecule.
Entry COc1ccc(CNc2cccc(C(=O)/C=C/c3ccc(NC(C)=O)cc3)c2)cc1OC [Compound 5h] needs its inhibition at 10 µM filled in; supply it.
92.2

###

- Tested on: NCI-H460
- Method notes: NCI-60 SRB growth inhibition, one-dose and five-dose
- Assay type: cell-based
- Test conditions: Homo sapiens, NCI-H460
Observation type: GI50

Examples with answers:
[[record]]
record_smiles = "O=C(/C=C/c1cccnc1)c1cccc(NCc2ccc(CO)cc2)c1"
observation_type = "GI50"
observed_measurement = "14 µM"

[[record]]
record_smiles = "CC(=O)Nc1ccc(/C=C/C(=O)c2cccc(NCc3ccc(CO)cc3)c2)cc1"
observation_type = "GI50"
observed_measurement = "13.4 µM"

[[record]]
record_smiles = "CC(=O)Nc1ccc(/C=C/C(=O)c2cccc(NCc3ccc(C)cc3)c2)cc1"
observation_type = "GI50"
observed_measurement = "4.18 µM"

[[record]]
record_smiles = "O=C(/C=C/c1cccnc1)c1cccc(NCc2csc3ccccc23)c1"
observation_type = "GI50"
observed_measurement = "4.98 µM"


Proceeding to the next compound to report its GI50.
Tell me GI50 reported for CC(=O)Nc1ccc(CNc2cccc(C(=O)/C=C/c3cccnc3)c2)cc1
2.87 µM

###

- Test system: U251
- Method notes: NCI-60 SRB growth inhibition, one-dose and five-dose
- Format: cell-based
- Test conditions: Homo sapiens, U-251
Observation type: GI50 (µM)
Provide the reading as a plain figure in µM.

Sample records with GI50:
[[record]]
record_smiles = "CC(=O)Nc1ccc(/C=C/C(=O)c2cccc(NCc3ccc(CO)cc3)c2)cc1"
tested_system = "U251"
observation_type = "GI50"
observed_measurement = 3.6

[[record]]
record_smiles = "COc1ccc(CNc2cccc(C(=O)/C=C/c3cccnc3)c2)cc1OC"
tested_system = "U251"
observation_type = "GI50"
observed_measurement = 3.62

[[record]]
record_smiles = "COc1ccc(CNc2cccc(C(=O)/C=C/c3ccc(NC(C)=O)cc3)c2)cc1OC"
tested_system = "U251"
observation_type = "GI50"
observed_measurement = 2.88

[[record]]
record_smiles = "CC(=O)Nc1ccc(/C=C/C(=O)c2cccc(NCc3ccc(C)cc3)c2)cc1"
tested_system = "U251"
observation_type = "GI50"
observed_measurement = 3.89

[[record]]
record_smiles = "CC(=O)Nc1ccc(CNc2cccc(C(=O)/C=C/c3cccnc3)c2)cc1"
tested_system = "U251"
observation_type = "GI50"
observed_measurement = 1.9

[[record]]
record_smiles = "CC(=O)Nc1ccc(/C=C/C(=O)c2cccc(NCc3ccc(NC(C)=O)cc3)c2)cc1"
tested_system = "U251"
observation_type = "GI50"
observed_measurement = 3.2

[[record]]
record_smiles = "Cc1ccc(CNc2cccc(C(=O)/C=C/c3cccnc3)c2)cc1"
tested_system = "U251"
observation_type = "GI50"
observed_measurement = 9.87

[[record]]
record_smiles = "O=C(/C=C/c1cccnc1)c1cccc(NCc2ccc(CO)cc2)c1"
tested_system = "U251"
observation_type = "GI50"
observed_measurement = 4.94

[[record]]
record_smiles = "CC(=O)Nc1ccc(/C=C/C(=O)c2cccc(NCc3csc4ccccc34)c2)cc1"
tested_system = "U251"
observation_type = "GI50"
observed_measurement = 2.24


Please give measured GI50 of the following entry: O=C(/C=C/c1cccnc1)c1cccc(NCc2csc3ccccc23)c1
1.92

###

- Test system: BT-549
- Method notes: NCI-60 SRB growth inhibition, one-dose and five-dose
- Format: cell-based
- Test conditions: Homo sapiens, BT-549
Param label: returns y when GI50 < 4 µM, returns n otherwise, including exact equality.

Some entries whose results are on file:
[[record]]
record_smiles = "COc1ccc(CNc2cccc(C(=O)/C=C/c3cccnc3)c2)cc1OC"
assigned_category = "y"

[[record]]
record_smiles = "CC(=O)Nc1ccc(CNc2cccc(C(=O)/C=C/c3cccnc3)c2)cc1"
assigned_category = "y"

[[record]]
record_smiles = "CC(=O)Nc1ccc(/C=C/C(=O)c2cccc(NCc3ccc(NC(C)=O)cc3)c2)cc1"
assigned_category = "n"

[[record]]
record_smiles = "COc1ccc(CNc2cccc(C(=O)/C=C/c3ccc(NC(C)=O)cc3)c2)cc1OC"
assigned_category = "y"


Lab note: GI50 threshold 4 µM. Does this molecule come in strictly under it? CC(=O)Nc1ccc(/C=C/C(=O)c2cccc(NCc3csc4ccccc34)c2)cc1
n

API: query returns whether the molecule falls strictly under 4 µM in GI50. Query: CC(=O)Nc1ccc(/C=C/C(=O)c2cccc(NCc3ccc(CO)cc3)c2)cc1
n

###

- System: SF-539
- Method notes: NCI-60 SRB growth inhibition, one-dose and five-dose
- Format: cell-based
- Test conditions: Homo sapiens, SF-539
Please use 1.0 for GI50 under 9 µM and 0.0 for everything else, ties included.

Here are 4 compounds together with their reported answers.
[[record]]
compound = "O=C(/C=C/c1cccnc1)c1cccc(NCc2ccc(CO)cc2)c1 [Compound 5e]"
assigned_category = 0.0

[[record]]
compound = "COc1ccc(CNc2cccc(C(=O)/C=C/c3ccc(NC(C)=O)cc3)c2)cc1OC [Compound 5h]"
assigned_category = 1.0

[[record]]
compound = "COc1ccc(CNc2cccc(C(=O)/C=C/c3cccnc3)c2)cc1OC [Compound 5c]"
assigned_category = 0.0

[[record]]
compound = "CC(=O)Nc1ccc(/C=C/C(=O)c2cccc(NCc3csc4ccccc34)c2)cc1 [Compound 5i]"
assigned_category = 1.0


Query compound follows.
Just wondering, is GI50 of CC(=O)Nc1ccc(/C=C/C(=O)c2cccc(NCc3ccc(C)cc3)c2)cc1 [Compound 5f] below 9 µM?
0.0
